# key: entry, value: IC50
TARGET_OF_ASSAY: BR P.2 variant RBD (R319-F541 with E484K) (SARS-CoV-2, UniProt P0DTC2 319-541)
PROTOCOL_SUMMARY: lateral flow NC50, RBD-AuNP vs immobilised ACE2
ASSAY_METRIC: IC50 (µg/mL)

>>> test_value("1035224 (antibody, V domains shown) VH: EVQLQQSGAEFVRPGALVKLSCKASGFNIKDDYMHWVKQRPEQGLEWIGWIDPENGNSIYDPKFQGKASITADTSSNTAYLQLSSLTSEDTAVYYCARGEYFGSGSFAYWGQGTLVTVSA VL: QIVLTQSPAIMSASPGEKVTISCSASSSVSYMYWYQQKPGSSPKPWIYRTSNLASGVPARFSGSGSGTSYSLTISSMEAEDAATYYCQQYHSYPYMYTFGGGTKLEIK")
0.54
>>> test_value("1035753 (antibody, V domains shown) VH: EVQLQQSGAELVRPGALVKLSCKASGFNIKDYYMHWVKQRPEQGLEWIGWIDPENGNTIYDPKFLGKASITADTSSNTAYLQLSSLTSEDTAVYYCARWYYYAMDSWGQGTSVTVSS VL: DIQMTQTTSSLSASLGDRVTISCSASQGISNYLNWYQQKPDGTVKLLIYYTSSLHSGVPSRFSGSGSGTDYSLTISNLEPEDIATYYCQQYSKLPFTFGGGTNLEMK")
3.22
